# Target Or System: UniProt:Q60613
# Sequence (Q60613 whole entry): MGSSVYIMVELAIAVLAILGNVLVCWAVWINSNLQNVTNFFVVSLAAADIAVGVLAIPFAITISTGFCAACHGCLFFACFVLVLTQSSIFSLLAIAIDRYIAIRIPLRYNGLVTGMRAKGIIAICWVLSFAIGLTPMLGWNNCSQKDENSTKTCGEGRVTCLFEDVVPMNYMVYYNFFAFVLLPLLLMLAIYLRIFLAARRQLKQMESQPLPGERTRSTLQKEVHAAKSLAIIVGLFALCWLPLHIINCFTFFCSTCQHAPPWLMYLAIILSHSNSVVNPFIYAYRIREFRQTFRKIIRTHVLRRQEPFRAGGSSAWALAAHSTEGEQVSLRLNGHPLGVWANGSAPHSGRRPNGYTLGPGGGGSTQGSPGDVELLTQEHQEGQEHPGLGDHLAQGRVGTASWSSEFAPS
# Test Name: Displacement of [3H]MSX-2 from recombinant mouse A2A adenosine receptor expressed in CHO cell membranes measured after 60 mins by liquid scintillation counting method
I'd appreciate it if you could supply Ki values for the items below.

Query: Name the reported Ki value associated with the molecule CCCn1c(=O)[nH]c2nc(-c3ccc(S(=O)(=O)O)cc3)[nH]c2c1=O
Reply: > 10 µM

Query: Name the recorded Ki for CCCn1c(=O)c2[nH]c(-c3ccc(OCC(=O)Nc4ccc(C#N)cc4)cc3)nc2n(CCC)c1=O .
Reply: > 10 µM

====

# Target Or System: UniProt Q60612
# Sequence (Q60612 whole entry): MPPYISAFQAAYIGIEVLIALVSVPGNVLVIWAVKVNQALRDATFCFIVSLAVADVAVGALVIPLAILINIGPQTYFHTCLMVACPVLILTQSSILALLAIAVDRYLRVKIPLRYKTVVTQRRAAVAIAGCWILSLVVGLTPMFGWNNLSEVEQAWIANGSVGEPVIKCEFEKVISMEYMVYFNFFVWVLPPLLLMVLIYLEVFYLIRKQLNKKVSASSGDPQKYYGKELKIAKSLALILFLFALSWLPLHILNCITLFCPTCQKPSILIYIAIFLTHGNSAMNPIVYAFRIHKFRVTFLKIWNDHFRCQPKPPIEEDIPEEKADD
# Test Name: Displacement of [3H]CCPA from recombinant mouse A1 adenosine receptor expressed in CHO cell membranes measured after 60 mins by liquid scintillation counting method
Measured Attribute: Ki

Query: Look up Ki with UniProt Q60612 for this compound: CCCn1c(=O)c2[nH]c(-c3ccc(OCC(=O)Nc4ccc(C#N)cc4)cc3)nc2n(CCC)c1=O
Reply: 1.45 nM

====

# Target Or System: Adenosine receptor A1 (Homo sapiens)
# Test Name: Displacement of [3H]CCPA from recombinant human A1 adenosine receptor expressed in CHO cell membranes at 1 uM measured after 90 mins in presence of adenosine deaminase by liquid scintillation counting method relative to control
Measured Attribute: inhibition (%)
Value expressed in %; do not type the unit.

Query: Query (compound): CCCn1c(=O)[nH]c2nc(-c3ccc(S(=O)(=O)N4CCN(c5ccc(Br)cc5)CC4)cc3)[nH]c2c1=O ; field requested: inhibition
Reply: 13

Query: Item under review: CCCn1c(=O)c2[nH]c(-c3ccc(S(=O)(=O)N4CCN(c5ccc(Cl)cc5)CC4)cc3)nc2n(CC)c1=O . Reported inhibition?
Reply: 24

Query: Could you tell me which inhibition is on file for CCCn1c(=O)[nH]c2nc(-c3ccc(S(=O)(=O)N4CCN(Cc5ccc(C(=O)O)cc5)CC4)cc3)[nH]c2c1=O ?
Reply: 12

Query: Need inhibition of CCCn1c(=O)[nH]c2nc(-c3ccc(S(=O)(=O)N4CCN(c5cccc(Br)c5)CC4)cc3)[nH]c2c1=O , thanks.
Reply: -1

Query: Any idea what its inhibition is? The compound is CCCn1c(=O)[nH]c2nc(-c3ccc(S(=O)(=O)N4CCN(c5ccc(Cl)cc5F)CC4)cc3)[nH]c2c1=O
Reply: 9

Query: # query: inhibition of entry CCCn1c(=O)[nH]c2nc(-c3ccc(S(=O)(=O)N4CCN(c5cccc(OC)c5)CC4)cc3)[nH]c2c1=O
Reply: -3

Query: Param item = CCCn1c(=O)[nH]c2nc(-c3ccc(S(=O)(=O)N4CCN(c5ccc(C)cc5)CC4)cc3)[nH]c2c1=O ; retrieve measured inhibition.
Reply: 12

Query: Record request: inhibition value, item CCCn1c(=O)c2[nH]c(-c3ccc(S(=O)(=O)N4CCN(c5ccc(Cl)cc5)CC4)cc3)nc2n(C)c1=O
Reply: 22

====

# Target Or System: UniProt:P30542
# Sequence (whole entry): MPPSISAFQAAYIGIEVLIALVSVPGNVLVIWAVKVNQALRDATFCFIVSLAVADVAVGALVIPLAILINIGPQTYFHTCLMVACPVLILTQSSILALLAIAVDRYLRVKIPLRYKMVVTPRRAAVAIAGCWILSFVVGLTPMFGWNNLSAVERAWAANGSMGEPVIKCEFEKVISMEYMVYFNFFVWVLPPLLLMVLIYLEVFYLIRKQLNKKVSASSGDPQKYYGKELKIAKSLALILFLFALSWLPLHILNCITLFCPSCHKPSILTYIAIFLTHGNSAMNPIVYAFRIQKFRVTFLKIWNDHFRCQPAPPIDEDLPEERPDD
# Test Name: Displacement of [3H]CCPA from recombinant human A1 adenosine receptor expressed in CHO cell membranes at 1 uM measured after 90 mins in presence of adenosine deaminase by liquid scintillation counting method relative to control
Please go through the items and note down their inhibition.
Could you kindly put the unit after your number?

Query: Record CCCn1c(=O)[nH]c2nc(-c3ccc(S(=O)(=O)N4CCN(Cc5ccc(F)c(OC)c5)CC4)cc3)[nH]c2c1=O : what is its inhibition with UniProt:P30542?
Reply: 25%

Query: UniProt:P30542 / inhibition / CCCn1c(=O)[nH]c2nc(-c3ccc(S(=O)(=O)N4CCN(C(=O)c5ccccc5)CC4)cc3)[nH]c2c1=O : value?
Reply: 15%

Query: Request - read-out inhibition | tested on UniProt:P30542 | compound CCCn1c(=O)[nH]c2nc(-c3ccc(S(=O)(=O)N4CCN(c5ccc(OC)c(Cl)c5)CC4)cc3)[nH]c2c1=O
Reply: 23%

Query: Look up inhibition with UniProt:P30542 for this compound: CCCn1c(=O)[nH]c2nc(-c3ccc(S(=O)(=O)N4CCN(c5ccc(I)cc5)CC4)cc3)[nH]c2c1=O
Reply: 24%
